Origin of values: paper PMC11674305

The reader will find reported Viability values listed item by item below.
Tested on: neural crest cells (NCC)
measurementProtocol: cMINC (UKN2) assay: circular migration of neural crest cells, with viability
Format: cell-based, human
experimentalConditions: Pre-Screen 1, single concentration 1:1000 of stock, in most cases 100 μM
endpointName: Viability

{"structureAsSmiles": "COC(=O)N(OC)c1ccccc1COc1ccn(-c2ccc(Cl)cc2)n1", "observedResult": "97 % of control"}
{"structureAsSmiles": "C=C(C)[C@H]1Cc2c(ccc3c2O[C@@H]2COc4cc(OC)c(OC)cc4[C@@H]2C3=O)O1", "observedResult": "0 % of control"}
{"structureAsSmiles": "O=[N+]([O-])c1cc(C(F)(F)F)c(Cl)c([N+](=O)[O-])c1Nc1ncc(C(F)(F)F)cc1Cl", "observedResult": "2 % of control"}
